# assayed-target: Substance-P receptor (Cavia porcellus)
# procedure-summary: In vitro inhibition of substance P induced contractions of the guinea pig ileum at 5 uM.
# Type: tissue-based
Attribute: Activity
Number only, in dose ratio; omit the unit.

compound: COC(=O)[C@@H](CCSC)NC(=O)C(CC(C)C)NC(=O)[C@@H](Cc1c[nH]c2ccccc12)NC(=O)[C@H](Cc1c[nH]c2ccccc12)NC(=O)[C@@H](Cc1c[nH]c2ccccc12)NC(=O)[C@H](CCC(N)=O)NC(=O)[C@H](CCC(N)=O)NC(=O)[C@@H]1CCCN1C(=O)[C@H](CCCCNC(=O)OCc1ccccc1)NC(=O)[C@@H]1CCCN1C(=O)[C@H](CCCN=C(N)N)NC(=O)OCc1ccccc1 (stereo in doubt)
Activity [dose ratio]: 6.2

In: Hello, I am looking for reported Activity with Substance-P receptor (Cavia porcellus) for COC(=O)[C@H](CCSC)NC(=O)[C@H](CC(C)C)NC(=O)[C@@H](Cc1c[nH]c2ccccc12)NC(=O)[C@H](Cc1ccccc1)NC(=O)[C@@H](Cc1ccccc1)NC(=O)[C@H](CCCN=C(N)N)NC(=O)[C@H](CC(N)=O)NC(=O)C1CCCN1C(=O)[C@H](CCCCN)NC(=O)C1CCCN1C(=O)[C@@H](N)CCCN=C(N)N (stereo in doubt) . Could you help?
Out: 2.2

Reference for the values: ChEMBL document CHEMBL1123302
